The measured values listed here are drawn from the supplement of paper PMC12338614.

B1: library; numbered along this chain (parent)
chain: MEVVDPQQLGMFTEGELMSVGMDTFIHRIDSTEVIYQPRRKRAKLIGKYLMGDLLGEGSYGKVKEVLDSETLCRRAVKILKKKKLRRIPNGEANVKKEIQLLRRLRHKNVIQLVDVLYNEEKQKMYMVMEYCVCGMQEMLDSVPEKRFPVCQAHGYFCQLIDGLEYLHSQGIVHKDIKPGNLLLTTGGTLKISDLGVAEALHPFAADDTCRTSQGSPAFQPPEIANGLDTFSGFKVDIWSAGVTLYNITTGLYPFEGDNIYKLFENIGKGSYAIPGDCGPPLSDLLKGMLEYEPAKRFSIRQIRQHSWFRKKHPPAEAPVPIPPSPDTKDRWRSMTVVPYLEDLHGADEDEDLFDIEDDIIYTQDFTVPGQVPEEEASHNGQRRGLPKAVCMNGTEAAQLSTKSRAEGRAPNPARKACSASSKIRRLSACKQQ

- Variants of: B1
- EXPERIMENTAL_DETAILS: STK11 functional score (HeLa growth suppression), rescaled enrichment; synonymous median = 1, nonsense median = 0 (normalised score)
- MEASUREMENT_PARAMETERS: with HeLa; variant type: missense
Quick list: STK11 functional score per entry.
# print the numeric value only

Solved cases below.
SEQUENCE_CHANGE | STK11 functional score
A200P | 1.35
T402K | 1.3
E396A | 1.29
V150T | 0.385

Looking for the measured STK11 functional score of P413A , can you help?
1.5

Looking for the measured STK11 functional score of I35S , can you help?
1.49

Looking for the measured STK11 functional score of L117G , can you help?
0.823
